FYI, the data here is from patent US9149536B2.

MIC E. coli ATCC 25922 listing for selected molecules.
test system: E. coli ATCC 25922; test: MIC, double-microdilution, E. coli ATCC 25922; assay type: cell-based, Escherichia coli; settings: Table 4
The figure you give is taken to be in µg/mL; do not add the unit.

Take a look at these entries with their results.
NCC1OC(OC2C(C(=O)NCc3cn(CCOCCN4CCN(c5cc6c(cc5F)c(=O)c(C(=O)O)cn6C5CC5)CC4)nn3)OC(OC3C(O)C(N)CC(N)C3OC3OC(CN)C(O)C(O)C3N)C2O)C(N)C(O)C1O (stereo not shown) [Compound 1n]: 6
NCC1OC(OC2C(COCc3cn(CCN4CCN(c5cc6c(cc5F)c(=O)c(C(=O)O)cn6C5CC5)CC4)nn3)OC(OC3C(O)C(N)CC(N)C3OC3OC(CN)C(O)C(O)C3N)C2O)C(N)C(O)C1O (stereo not shown) [Compound 1q]: 3
NCC1OC(OC2C(C(=O)Nc3ccc(-c4cn(CCCCN5CCN(c6cc7c(cc6F)c(=O)c(C(=O)O)cn7C6CC6)CC5)nn4)cc3)OC(OC3C(O)C(N)CC(N)C3OC3OC(CN)C(O)C(O)C3N)C2O)C(N)C(O)C1O (stereo not shown) [Compound 1c]: 6

Now consider the entry below.
Q: Lab request: please report MIC E. coli ATCC 25922 under test system E. coli ATCC 25922 for NCC1OC(OC2C(C(=O)NCc3cn(CCCCCN4CCN(c5cc6c(cc5F)c(=O)c(C(=O)O)cn6C5CC5)CC4)nn3)OC(OC3C(O)C(N)CC(N)C3OC3OC(CN)C(O)C(O)C3N)C2O)C(N)C(O)C1O (stereo not shown) [Compound 1l]
Result: 6

----------
Entries and their MIC BL21/pETSACG1
tested on: E. coli BL21/pETSACG1; assay: microbe, parasite or virus in culture; format: cell-based; conditions: expressed enzyme APH(3′)-IIIa
Write down the value, and be sure its unit follows.

In the examples that follow, each entry is paired with its recorded MIC BL21/pETSACG1.
NCC1OC(OC2C(C(=O)NCc3cn(Cc4ccc(CN5CCN(c6cc7c(cc6F)c(=O)c(C(=O)O)cn7C6CC6)CC5)cc4)nn3)OC(OC3C(O)C(N)CC(N)C3OC3OC(CN)C(O)C(O)C3N)C2O)C(N)C(O)C1O (stereo not shown): 0.4 μg/ml
NCC1OC(OC2C(C(=O)NCc3cn(Cc4cccc(CN5CCN(c6cc7c(cc6F)c(=O)c(C(=O)O)cn7C6CC6)CC5)c4)nn3)OC(OC3C(O)C(N)CC(N)C3OC3OC(CN)C(O)C(O)C3N)C2O)C(N)C(O)C1O (stereo not shown): 0.4 μg/ml
NCC1OC(OC2C(C(=O)NCc3cn(CC(O)CN4CCN(c5cc6c(cc5F)c(=O)c(C(=O)O)cn6C5CC5)CC4)nn3)OC(OC3C(O)C(N)CC(N)C3OC3OC(CN)C(O)C(O)C3N)C2O)C(N)C(O)C1O (stereo not shown): 0.2 μg/ml

Next compound, please.
Q: What value of MIC BL21/pETSACG1 has been recorded for this entry: NCC1OC(OC2C(COCc3cn(CCN4CCN(c5cc6c(cc5F)c(=O)c(C(=O)O)cn6C5CC5)CC4)nn3)OC(OC3C(O)C(N)CC(N)C3OC3OC(CN)C(O)C(O)C3N)C2O)C(N)C(O)C1O (stereo not shown)
Result: 0.2 μg/ml

----------
system: MRSA ATCC 43300; experiment: microbe, parasite or virus in culture; format: cell-based, S. aureus; conditions: Table 4
parameter: MIC MRSA ATCC 43300 (µg/mL)
Your answer should be a plain number; it is taken to be in µg/mL.

NCC1OC(OC2C(C(=O)NCc3cn(CCOCCN4CCN(c5cc6c(cc5F)c(=O)c(C(=O)O)cn6C5CC5)CC4)nn3)OC(OC3C(O)C(N)CC(N)C3OC3OC(CN)C(O)C(O)C3N)C2O)C(N)C(O)C1O (centres unmarked) [Compound 1n]: 24

Here is another molecule to look at.
Q: Which measured MIC MRSA ATCC 43300 value corresponds to NCC1OC(OC2C(C(=O)Nc3ccc(-c4cn(CCCCCN5CCN(c6cc7c(cc6F)c(=O)c(C(=O)O)cn7C6CC6)CC5)nn4)cc3)OC(OC3C(O)C(N)CC(N)C3OC3OC(CN)C(O)C(O)C3N)C2O)C(N)C(O)C1O (centres unmarked) [Compound 1d] ?
Result: 48

----------
tested on: MRSA ATCC 43300; test: microbe, parasite or virus in culture; assay type: cell-based, S. aureus; settings: Table 4
parameter: MIC MRSA ATCC 43300 (µg/mL)
# output: bare number, implied unit µg/mL

These recorded examples may help you get a feel for the data.
O=C(O)c1cn(C2CC2)c2cc(N3CCNCC3)c(F)cc2c1=O [Cipro, ciprofloxacin, reference compound]: 0.20
NCC1OC(OC2C(C(=O)NCc3cn(CCCCCN4CCN(c5cc6c(cc5F)c(=O)c(C(=O)O)cn6C5CC5)CC4)nn3)OC(OC3C(O)C(N)CC(N)C3OC3OC(CN)C(O)C(O)C3N)C2O)C(N)C(O)C1O (stereo not drawn): 48

Now look at this entry.
Q: // query MIC MRSA ATCC 43300 value for entry NCC1OC(OC2C(C(=O)Nc3ccc(-c4cn(CCN5CCN(c6cc7c(cc6F)c(=O)c(C(=O)O)cn7C6CC6)CC5)nn4)cc3)OC(OC3C(O)C(N)CC(N)C3OC3OC(CN)C(O)C(O)C3N)C2O)C(N)C(O)C1O (stereo not drawn)
Result: 48

----------
system: E. coli AG100A; assay: MIC, double-microdilution, E. coli AG100A; type: cell-based, Escherichia coli; conditions: Table 4; kanamycin resistant, APH(3′)-I
parameter: MIC E. coli AG100A (µg/mL)
Numeric answer only, unit µg/mL assumed.

NCC1OC(OC2C(C(=O)NCc3cn(CCOCCN4CCN(c5cc6c(cc5F)c(=O)c(C(=O)O)cn6C5CC5)CC4)nn3)OC(OC3C(O)C(N)CC(N)C3OC3OC(CN)C(O)C(O)C3N)C2O)C(N)C(O)C1O (stereo not drawn): 1.5

Q: Name the reported MIC E. coli AG100A value associated with the molecule NCC1OC(OC2C(C(=O)NCc3cn(Cc4ccc(CN5CCN(c6cc7c(cc6F)c(=O)c(C(=O)O)cn7C6CC6)CC5)cc4)nn3)OC(OC3C(O)C(N)CC(N)C3OC3OC(CN)C(O)C(O)C3N)C2O)C(N)C(O)C1O (stereo not drawn)
Result: 1.5

Q: State the recorded MIC E. coli AG100A for this entry: NCC1OC(OC2C(C(=O)NCc3cn(CCCCCN4CCN(c5cc6c(cc5F)c(=O)c(C(=O)O)cn6C5CC5)CC4)nn3)OC(OC3C(O)C(N)CC(N)C3OC3OC(CN)C(O)C(O)C3N)C2O)C(N)C(O)C1O (stereo not drawn)
Result: 1.5

Q: Which MIC E. coli AG100A is reported for this molecule? NCC1OC(OC2C(C(=O)NCc3cn(Cc4cccc(CN5CCN(c6cc7c(cc6F)c(=O)c(C(=O)O)cn7C6CC6)CC5)c4)nn3)OC(OC3C(O)C(N)CC(N)C3OC3OC(CN)C(O)C(O)C3N)C2O)C(N)C(O)C1O (stereo not drawn)
Result: 0.75

Q: Entry NCC1OC(OC2C(C(=O)Nc3ccc(-c4cn(CCCCCCN5CCN(c6cc7c(cc6F)c(=O)c(C(=O)O)cn7C6CC6)CC5)nn4)cc3)OC(OC3C(O)C(N)CC(N)C3OC3OC(CN)C(O)C(O)C3N)C2O)C(N)C(O)C1O (stereo not drawn) has what MIC E. coli AG100A?
Result: 1.5

Q: Item NCC1OC(OC2C(C(=O)Nc3ccc(-c4cn(CC(O)CN5CCN(c6cc7c(cc6F)c(=O)c(C(=O)O)cn7C6CC6)CC5)nn4)cc3)OC(OC3C(O)C(N)CC(N)C3OC3OC(CN)C(O)C(O)C3N)C2O)C(N)C(O)C1O (stereo not drawn) has what recorded MIC E. coli AG100A?
Result: 0.75

----------
test system: E. coli ATCC 25922; assay: MIC, double-microdilution, E. coli ATCC 25922; assay type: cell-based, Escherichia coli; details: Table 4
parameter: MIC E. coli ATCC 25922 (µg/mL)
The figure you give is taken to be in µg/mL; do not add the unit.

NCC1OC(OC2C(C(=O)NCc3cn(CC(O)CN4CCN(c5cc6c(cc5F)c(=O)c(C(=O)O)cn6C5CC5)CC4)nn3)OC(OC3C(O)C(N)CC(N)C3OC3OC(CN)C(O)C(O)C3N)C2O)C(N)C(O)C1O (centres unmarked): 3

Q: # MIC E. coli ATCC 25922 lookup, item NCC1OC(OC2C(C(=O)NCc3cn(Cc4cccc(CN5CCN(c6cc7c(cc6F)c(=O)c(C(=O)O)cn7C6CC6)CC5)c4)nn3)OC(OC3C(O)C(N)CC(N)C3OC3OC(CN)C(O)C(O)C3N)C2O)C(N)C(O)C1O (centres unmarked)
Result: 6
